- assay.system: UniProt P56817
- Sequence (P56817 whole entry): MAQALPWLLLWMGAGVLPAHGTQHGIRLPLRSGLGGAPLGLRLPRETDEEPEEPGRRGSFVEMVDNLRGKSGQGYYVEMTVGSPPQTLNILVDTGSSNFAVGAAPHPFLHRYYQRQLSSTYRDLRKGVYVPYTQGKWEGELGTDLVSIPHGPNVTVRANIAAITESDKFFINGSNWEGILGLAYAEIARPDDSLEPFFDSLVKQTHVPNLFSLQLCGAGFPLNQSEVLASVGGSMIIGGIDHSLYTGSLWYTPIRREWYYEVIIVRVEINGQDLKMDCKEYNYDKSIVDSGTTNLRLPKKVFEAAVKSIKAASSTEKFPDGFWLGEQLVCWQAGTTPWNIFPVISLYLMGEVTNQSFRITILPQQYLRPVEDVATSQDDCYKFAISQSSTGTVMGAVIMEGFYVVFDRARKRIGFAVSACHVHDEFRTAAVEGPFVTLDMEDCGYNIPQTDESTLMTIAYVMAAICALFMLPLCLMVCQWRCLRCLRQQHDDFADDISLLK
- test: Inhibition of BACE1 by secreted AAPbeta release assay
quantity.kind: IC50 (nM)

[[record]]
record_smiles = "CC#Cc1ccnc(-c2cccc([C@@]3(c4cc(C)c(=O)n(CC)c4)N=C(N)c4c(F)cccc43)c2)c1"
result = 2


1. CC#Cc1cncc(-c2cccc([C@@]3(c4cc(C(F)F)c(=O)n(CC)c4)N=C(N)c4c(F)cccc43)c2)c1
2. CCn1cc([C@]2(c3cccc(-c4cncc(C#N)c4)c3)N=C(N)c3c(F)cccc32)cc(C)c1=O
Incoming: Pick one: 1 or 2 . Which has the bigger IC50 number? Pick one and reply with its label.
Outgoing: 1
(1: 4 nM, 2: 2 nM)
